# Tested on: A549/ATCC NSCLC
# PROCEDURE TEXT: NCI-60 one-dose screen, 48 h (100 = growth as untreated, 0 = no growth, -100 = all killed)
# CONDITION LABEL: 10 µM unless noted
The panel holds about 83,000 compounds, 20% with a hit somewhere; the sample as a whole holds those more often.
READOUT NAME: growth (%)
Quick reminder: number only, in %, skip the unit.

Example entries begin here.
>>> value_reported("COC(=O)/C=C1/SC(=Nc2ccc([N+](=O)[O-])cc2)N(CCc2c[nH]c3ccc(O)cc23)C1=O")
69.3
>>> value_reported("C=C(CNCCc1ccc(O)cc1)[C@@H]1CC[C@]2(CO)CC[C@]3(C)[C@H](CC[C@@H]4[C@@]5(C)CCC(=O)C(C)(C)[C@@H]5CC[C@]43C)[C@@H]12")
26.7
>>> value_reported("CC1=CC(c2ccco2)=C2C(N)=NNC2N1 (stereo not given)")
101
>>> value_reported("COc1ccc(Cn2cc3c(c2-c2ccccc2)CCc2cnoc2-3)cc1")
20.5
>>> value_reported("CNC(C)[C@H]1CCC2C3CC=C4C(=O)[C@@H](NC(=O)C=C(C)C)CC[C@]4(C)C3CC[C@@]21C (stereo not given in full)")
30.3

Form: Entry = CC(=O)c1sc2sc(C(C)=O)c(C)c2c1C | System = A549/ATCC NSCLC | growth = ____
74.8

// lookup growth | system=A549/ATCC NSCLC | key= COc1cccc(/C=N/NC(=O)c2ccccc2N2CCCC2)c1O
70.5

Form field: growth recorded for COc1ccccc1C(=O)Nc1cccc(NC(=O)c2ccoc2C)c1 with A549/ATCC NSCLC (enter value)
28.2

Identify the measured growth of Nc1nc(NC(=O)Nc2ccc(C(=O)O)cc2)nn1-c1ccc(S(N)(=O)=O)cc1 for A549/ATCC NSCLC.
82.8

Form field: growth recorded for CCN(CC)CCN1C(=O)c2c(c(C)c3c(oc4ccc(OC)cc43)c2C)C1=O with A549/ATCC NSCLC (enter value)
94.5
